# methodNotes: yeast display, Sf9 membrane polyspecificity reagent, FACS + sequencing; frameworks hold sequencing errors
metric: polyreactivity (PSR sort gate)

Known polyreactivity (PSR sort gate) results, listed for orientation:
QVQLVESGGGLVQAGGSLRLSCAASGLTSYDNTMGWYRQAPGKERELVARIRRTGGGTYYADSVKGRFTISRDNAKNTVYLQMNSMKPEDTAVYYCAATITPYDYDYIWFVYSDHDYWGQGTQVTVSS ... low polyreactivity
QVQLVESGGGLVQAGVSLRLSCPAGGSTFYKYVMGWYRQAPGKEREVVAAISVNGGDTYYADSVKGRFTISRDNAKNTVSVQMNSLNPEDTAVYYCAAERGVDLSARYGDNDNWGQGTQVTVTS ... low polyreactivity
QVQLVESGGGLVQAGGSLRLSCAASGLTFYYYAMGWYRQAPGKERQLVAAISRSGGSTYYADSVKGRFTISRDNAKNTVYLQMNSLKPEDTAVYYCAAREPYEGQRYYYEYYYWGQGTQVTVSS ... high polyreactivity
QVQLVESGGGLVQAGGSLRLSCAASGLIFQLYAMGWSRQAPGKERELLAAITIRDGSTYYADSVKGRFTISRDNAKNTVYFQMNSLKPEDTAFYFCAAEPVYYYPWSQYDYWGQGTQVTVSS ... high polyreactivity
QVQIEESGGGLVQAGRSHRLSCAASGSTFGSYAMRWYRQAPGKERELVAAISASGGSTYYADSVKGRFTISRDNAKHTVYLQMNSLKPEDTAVFYCATVYYSARYNYWGQGTQVTVSS ... high polyreactivity
QVQLVESGGGLVQAGGSLRLSCAASGSTFYQNAMGWYRQAPGKERELVAAISIGGGRTYYADSVKGRFTISRDNAKNTVYLQMNSLKPEDTAVYYCAAGPTGRYRREFRFDYLGQGTQVTVSS ... low polyreactivity
QVQLVESAAGLVQAGGSLRLSCAASGSIFSYYAMGWSRQAPGKERELVAAITGRGGNTYYADSVKGRFTISRDNAKNTVYLQMNSLKPEDTAVDYCAKDYFGWYDVETPYDYWGQGTQVTVSS ... low polyreactivity
QVQLVESGGGLVQAGGSLRLSCAASGFTFSTYTMGWYRQAPGKERELVAAIRRSGDSTYYADSVKGRFTISRDNAKNTVYLQMNSLKPEDTAVYYCNAVRYRFERFDYWGQGTQVTVSS ... high polyreactivity
QVQLVESGGGLVQAGGSLRLSCAASGRTFRINAMGWYRQAPGKERELVAAITSIAGNTYYADSVKGRFTISRDNAKNTVYLQMNSLKPEDTAVYYCAVDSVPWGFRGAYGLTRYYYWGQGTQVTVSS ... low polyreactivity
QVQLVESGGGLVQAGGSLRLSCAASGIFRRYAMGWYRQAPGKERELVAAISSSGGSTDYADSVKGRFTISRDNAKNTVYLQMNSLKPEDTAVYYCNAYDQHGWWCYAYDYWGQGTQVTVSS ... high polyreactivity

We next turn to a different sequence, shown below.
Item: QVQLEESGGGLVQAGGSLRLICAASGRTFVYYAMGWYRQAPGKERELVAAISTGGSTNYADSVKGRFTISRDNAKNTVYLQMNSLKTEDTAVYYCAAQYYISISKYDYWGQGTQVTVSS | polyreactivity (PSR sort gate): low polyreactivity

###

# methodNotes: yeast display, Sf9 membrane polyspecificity reagent, FACS + sequencing; frameworks hold sequencing errors
metric: polyreactivity (PSR sort gate)

QVQLVESGGGLVQAGGSLRLSCAASGLIIPFYAMGWYRQAPGKERELVAAISWSAGSTYYADSVKGRFTISRDNAKNTVYLQMNSLKPEDTAVYYCAATAYYYYDYDYWGQGTQVTVSS ... low polyreactivity
QVQLVESGGGLVQAGGSLRLSCAASGFTFDRNAMGWYRQAPGKERGFVAAISSSGGRTYYADSVKGRFTISRDNAKITVYLEMNSLKQEDTALYYCAADFVSRPSAYGSSYYWGQGTQVTVSS ... high polyreactivity
QVQLVESGGGLVQAGGSLRLSCASSGYTFVYYAMGWYRQAPGKERELVAAINVSDGNTFYADSVKGRFTISRDNAKNTVYLQMNSLIPEDTAVYYCAADYYPYPPTSEYGYWGQGTQVTVSS ... low polyreactivity
QVQLVESGRGLVQAGGSLRLSCAASGIIFTRYAMGWYRQAPGKERDLVAGISYSGSSTYYADSVKGRFTISRDNAKNTVYLQMNSLKPEDTAVYYCAAEFVTYYSSSKRAYYYWGQGTQVTVSS ... high polyreactivity
QVQLVESGGGLDQAGGSLRLSCAASGFTFPRYAMGWYRQAPGKERELVAAITLIGGSTYYADSVKGRFTISRDNAKNTVYLQMNSLKPEDTAVYYCAATDRKVGVYHSYYYWGQGTQVTVSS ... low polyreactivity
QVQLVESGGGIVQAGGSLRLSCAASGNTFYTYAMGWYRQAPGKERELVAAITSGGRTYADSVKGRFTISRDNATNTVYLQMNSLKPEDTAVYYCAADFPGFYYVYPGDYWGQGTQVTVSS ... low polyreactivity
QVQLVESGGGLVQAGGSLRLSCAASGLTFHYYAMGWYRQAPGKERELVAAITATYYADSVKGRFTISRDNAKNTVYLQMNSLKPEDTAVYYCNAFLYPKQPLSPPDPTFEGGYWGQGTQVTVSS ... low polyreactivity
QVQLVESGGGLVKAGGSLRLSCAASGSTFRKYAMGWYRQAPGKEREFVAAISSSGGRTYYADSVKGRFTISRDNAKNTVYFLMNSLKPEDTAVYYCNSYFRYSNDYWGQGTQVTVSS ... high polyreactivity
QVQLVESGGGLVQAGGSLRLSCAASGSIFGYYAMGWYRQAPGKERELVAAIDSGGVSTYYADSVKGRFTISRDIAKNTVYLQMNSLKAEDTAVYYCAKRGPVRKTAYDYWGQGTQVTVSS ... low polyreactivity
QVQLVESGGGLVQAGGSLRLSCAASGSTFSVYTMGWYRQAPGKERELVATISGGGSTYYADSVKGRFTISRDNAKNTVYLQMNSLKPEDTAVYYCNAQGYGIFTSSLDYWGQGTQVTVSS ... low polyreactivity

Each sequence below has a reported value. Please supply its polyreactivity (PSR sort gate).
1. QVQLVESGGGLVQAGGSLRLSCAASGFTFTPYAMGWYRQAPGKERELVATISWSGGSTYADSVKGRFTISRDNAKNTVYLQMNSLKPEDTAVYYCAADVYGVHAPQSDYWTKYDYWGQGTQVTVSS
2. QVQLVESGGGLVQAGGSLRLSCAASGGTFQYYTMGWYRQAPGKERELVAGISSGGSTYYADSVKGRFTISRDNAKNTVYLQMNSLKPEDTAVYYCNAVSRRKTYGYRIIKYDYWGQGTQVTVSS
3. QVQLVESGGGLVQAGGSLRLSCAASGRTFGTKTMGWYRQAPGKERELVAGISRSGGRTYYADSVKGRFTISRDNAKNTVYLQMNSLKPEDTAVYYCAAVSYYQPLRRIMDYWGQGTQVTVSS
4. QVQLVESGGGLVQAGGSLRLSCAASGSTYSTNAMGWYRQAPGKERELVAAISRSGGSTYYADTVKRRFTISRDNAKITVYLQMNRLKPEDTAVYYCARYSFRGTNVRYDYWGQGTQVTVSS
5. QVQLVESGGGLVQAGGSLRLSCAASGSIFDVNAMGWYRQAPGKERELVAAITSSGGSTYYADSVKGRFTISRDNAKNTVYLQMNSLKPVDTAVYYCAAYSLYTMYWGQGTQVTVSS

low polyreactivity
high polyreactivity
high polyreactivity
high polyreactivity
low polyreactivity

###

# methodNotes: yeast display, Sf9 membrane polyspecificity reagent, FACS + sequencing; frameworks hold sequencing errors
metric: polyreactivity (PSR sort gate)

Reference set (5 entries):
QVQLVESGGGLVQAGGSLRLRGAASGFTFLYYAMGWYRQAPGKERELVAAITWSGDSTYYADSEKGRFTISRDYAMNTVYLQMNSLKPEDTAVYYCATGGVTFGSVVRGVDGDYWGQGTQVTVSS ... low polyreactivity
QVQLVESGGGLVQAGGSLRLSCAASGITFVGNAMGWYRQAPGKERELVAGIRGNGGSTYYADSVKGRFTISRDNAKNTVYLQMNSLKPEDTAVYYCAAAAYYADFDYWGQGTQVTVSS ... low polyreactivity
QVQLVESGGGLDQAGGSLRLSSAAYGRIFRRYAMGWYRQSHGKERELVAAITSGGGSTYYADSVKGRFTISRDNAKNTVYLQMNSLKPEETAVYYCNKSSLEFVKGKYGYWGQGTQVTVSS ... low polyreactivity
QVQLVESGGGLVQAGGSLRLSCAASGRIRFNVMGWYRQAPGKERELVAAITGGGTTYYADSVKGRFTISRDNAKNTVYLQMNSLKPEDTAVYYCAARALYSRINQIPSYYWGQGTQVTVSS ... high polyreactivity
QVQLVESGGGLVQAGGSLRLSCAASGYTFGLYTMGWYRQAPGKEREFVATIDWSEGGTHYADSVKGRFTISRDIAKISVYLQMNSLKPEYTAVYYCNADWYAYPYGYWGQGTQVTVSS ... low polyreactivity

Required: polyreactivity (PSR sort gate), one value per sequence below.
1. RVQLVESGGGLVQAGGSLRLSCAASGRIFDNYVMGCYRQAPGKDRELLAAISSGGGTYYADSVKGRFTISRDNAMNTVYLQMNSLKPEDTAVYFCAKRRVYDRSFGRYDYWGQGTQVTGSS
2. QVQLVESGGGLVQAGGSLRLRCAASGRIRYYGIGCYRQAPGKERELVAAITWRAGRTYYADSVKGRFTISRDNANITVYLHMNSLKPEDSAVYYCAAAIYSRSFRVDYWGQGTQVSVSS
3. QVQLVESGGGLVQAGGSLRLSCAASGFIFAWYAMGWYRQAPGKERELVADITSGGDTSYADSVKGRFTISLDNAKNTVYLQMNSLKPEDTAVYYCAAVWEPWNIRLVLTAVDYWGQGTQVTVSS
4. QVQLVESGGGLVQAGGSLRLSCAASGSTLPVNAMGWYRQAPGKERELVAAINRDGSTNYADSVKRPFTISRDNAKNNVYLQMNCLKPDDTAVYYCGADGFGYPGKRYDYWGHGTQVTVSS
5. QVQLVESGGGLVQAGGSLRLSCAASGFIFTIYAMGWYRQAPGKERELVAAITWNGGRTYYADSVKGRFTISRDNAKNTVYLQMNSLKAEDTAVYYCAARYGRAYDYWGQGTQVTVSS
6. QVQLVESGGGLVQAGGSLRLSCAASGSIFTGYAMGWYRQAPGKERELVARITKRGGSTYYADSVKGRFTISRDNAKNTVYLQMNSLKPEDTAVFYCNADRKFPYGSYETHDYWGQGTQVTVSS
7. QVQLVDTGGGLVQAGGSLRLSCAASGFTFRWYAMGWYRQAPGKERELVAAISWRGGSTYYADSVKGRFTISRDNAKTTVYLQMNSLKPEDTAVYYCAALRYWISLSSYEYWGQGTQVTVSS
8. QVQLVESGGGLVQAGGSLRLSCAASGFTNSMGWYRQAPGKERELVAAISYSGDSTNYADSVKGRFTISRDNAKNTVYLQMNSLKPQDTAVYYCNASSPYDYDWGQGTQVTVSS

low polyreactivity
high polyreactivity
low polyreactivity
low polyreactivity
high polyreactivity
high polyreactivity
high polyreactivity
low polyreactivity
